# Tested on: Tumor Cell line
# EXPERIMENT: TGI was measured In vitro as the ratio of the mean activity for all non-CNS tumor cell lines over the mean activity of the CNS tumor subpanel (eight cell lines)
# Type: functional, Homo sapiens
OBSERVABLE: TGI ratio
Give bare numbers.

Exercise: # lookup: TGI ratio of "Cc1c2ccncc2c(C)c2c1[nH]c1ccc(O)c(OCC(F)(F)F)c12"
Key: 0.98

Exercise: // next record "Cc1c2ccncc2c(C)c2c1[nH]c1ccc(OC(C)C)cc12"
Key: 0.9

Exercise: Now consider "CCOc1ccc2[nH]c3c(C)c4ccncc4c(C)c3c2c1" .
Key: 1.32

Exercise: Same lookup for "CC(=O)[O-].Cc1c2cc[n+](C)cc2c(C)c2c1[nH]c1ccc(OC(C)(C)C)cc12" , please.
Key: 1

Continuing:
Exercise: Could you tell me which TGI ratio is on file for "CCOc1ccc2[nH]c3c(C)c4cc[n+](C)cc4c(C)c3c2c1.[I-]" ?
Key: 9.54

Each recorded value in this set is attributed to ChEMBL document CHEMBL1127554.
